The following molecules are shown together with reported MIC values.
- Tested on: up to 32 different microorganisms
- test protocol: in vitro antibacterial activity (MIC), agar dilution on Brain Heart Infusion (BHI) agar with Steers replicator
- Format: cell-based
- condition label: Streptococcus bovis A-5169 (code JJ); unit assumed
measured metric: MIC

>>> measured_value("CCC1OC(=O)C(C)C(=O)C(C)C(OC2OC(C)CC(N(C)C)C2O)C(C)(OCC=Cc2cccnc2)CC(C)C(=O)C(C)C2NC(=O)OC12C (stereo not drawn)")
"≤ 0.005 µg/mL"
>>> measured_value("CC[C@H]1OC(=O)[C@H](C)C(=O)[C@H](C)[C@@H](O[C@@H]2O[C@H](C)C[C@H](N(C)C)[C@H]2O)[C@@](C)(OCCCc2cnc3ccccc3c2)C[C@@H](C)C2=NCCN3C(=O)O[C@@]1(C)[C@H]3[C@H]2C")
"≤ 0.005 µg/mL"
>>> measured_value("CC[C@H]1OC(=O)[C@H](C)C(=O)[C@H](C)[C@@H](O[C@@H]2O[C@H](C)C[C@H](N(C)C)[C@H]2O)[C@@](C)(OCC=Cc2cnc3ccccc3c2)C[C@@H](C)C(=O)[C@H](C)[C@H]2N(C)C(=O)O[C@]12C")
"0.02 µg/mL"
